These measurements were taken from PubChem BioAssay (NCI).

# System: SF-295 CNS
# Experimental Protocol: NCI tumour cell line growth inhibition, 48 h

[
  {
    "Compound": "C/C(CC(O)(C(F)(F)F)C(F)(F)F)=N\\NC(N)=O",
    "TGI": "> 10 µM"
  },
  {
    "Compound": "CC1=C(C(=O)Nc2ccccc2C)C(c2ccc(Cl)cc2)C(C(=O)Nc2ccccc2C)=C(C)N1",
    "TGI": "> 100 µM"
  },
  {
    "Compound": "COC(=O)[C@H]1C=NN[C@@H]1C(=O)N1[C@H]2CC3CC[C@@]2(CS1(=O)=O)C3(C)C",
    "TGI": "> 100 µM"
  },
  {
    "Compound": "CC(C)(C)c1ccc(OCCOc2ccc(C(C)(C)C)cc2N)c(N)c1",
    "TGI": "> 100 µM"
  },
  {
    "Compound": "Oc1cc(Cc2ccccc2)c(Cc2ccccc2)cc1O",
    "TGI": "> 10 µM"
  },
  {
    "Compound": "CCOC(=O)c1ccc(-n2[nH]nc(C(N)=O)c2=O)cc1",
    "TGI": "> 100 µM"
  },
  {
    "Compound": "CCSCCCSCCSCC",
    "TGI": "> 100 µM"
  },
  {
    "Compound": "c1ccc(/C(=N/Nc2nc3ccccc3s2)C2CCCCC2)nc1",
    "TGI": "29.9 µM"
  },
  {
    "Compound": "COc1ccc2c(c1)C(=O)CC1c3cnccc3C(=O)N21 (stereo unspecified)",
    "TGI": "> 100 µM"
  },
  {
    "Compound": "CN(C)CCNc1ccc2c(=O)n(CCN(C)C)c(=O)n3c4ccc(O)cc4c(=O)c1c23",
    "TGI": "0.148 µM"
  },
  {
    "Compound": "O=c1ncccn1[C@@H]1O[C@H](CO)[C@H](O)C1O (stereo partly specified)",
    "TGI": "> 100 µM"
  }
]

----------
# Test system: SK-OV-3 ovarian
# Experimental Protocol: NCI tumour cell line growth inhibition, 48 h

[
  {
    "Compound": "COc1cc(C2c3c(ccc4ccccc34)C(=O)C3CCC(=O)N32)cc(OC)c1OC (centres undefined)",
    "TGI": "> 50 µM"
  },
  {
    "Compound": "N#CN1C2CCC1CC(=O)C2",
    "TGI": "> 100 µM"
  },
  {
    "Compound": "IC[P+]1(c2ccccc2)CCCC1",
    "TGI": "> 100 µM"
  },
  {
    "Compound": "O=C(N/N=C/c1ccccc1O)N/N=C/c1ccccc1O",
    "TGI": "> 100 µM"
  }
]

----------
# System: RXF-631 renal
# Experimental Protocol: NCI tumour cell line growth inhibition, 48 h
Measurement Kind: TGI

[
  {
    "Compound": "CCOC(=O)NC(=O)c1cn(CCN2CCN(C(=O)NCCCCCCNC(=O)N3CCN(CCn4cc(C(=O)NC(=O)OCC)c(=O)[nH]c4=O)CC3)CC2)c(=O)[nH]c1=O",
    "Test Target": "RXF-631 renal",
    "Measurement Kind": "TGI",
    "Experimental Result": "> 100 µM"
  },
  {
    "Compound": "c1cc[c]([Sn][c]2ccccc2)cc1",
    "Test Target": "RXF-631 renal",
    "Measurement Kind": "TGI",
    "Experimental Result": "> 100 µM"
  },
  {
    "Compound": "O=C(COc1ccccc1Cl)N1N=C(c2ccc(Cl)cc2)CC1(O)c1ccccc1 (stereo not drawn)",
    "Test Target": "RXF-631 renal",
    "Measurement Kind": "TGI",
    "Experimental Result": "> 100 µM"
  },
  {
    "Compound": "CC1CC(C)CC(C)C(O)/C(C#N)=C/C=C/CC(C2CCCC2C(=O)O)OC(=O)CC(O)C(C)C1 (stereo not drawn)",
    "Test Target": "RXF-631 renal",
    "Measurement Kind": "TGI",
    "Experimental Result": "0.254 µM"
  },
  {
    "Compound": "O=c1cc(-c2cccs2)[nH]c2cc3c(cc12)OCO3",
    "Test Target": "RXF-631 renal",
    "Measurement Kind": "TGI",
    "Experimental Result": "> 100 µM"
  },
  {
    "Compound": "CC(=O)OCc1c2ccccc2c(C)c2c1cc(F)c1ccccc12",
    "Test Target": "RXF-631 renal",
    "Measurement Kind": "TGI",
    "Experimental Result": "63 µM"
  },
  {
    "Compound": "CN1N=CSC12C(=O)N(c1ccccc1)C(=O)N2c1ccccc1 (stereo not drawn)",
    "Test Target": "RXF-631 renal",
    "Measurement Kind": "TGI",
    "Experimental Result": "> 100 µM"
  },
  {
    "Compound": "CCc1c(C#N)c(=O)[nH]c(=O)n1CCN1CCN(C(=O)NCCCCCCNC(=O)N2CCN(CCn3c(CC)c(C#N)c(=O)[nH]c3=O)CC2)CC1",
    "Test Target": "RXF-631 renal",
    "Measurement Kind": "TGI",
    "Experimental Result": "> 100 µM"
  }
]

----------
Here, each record is paired with measured TGI data.
# System: HS 578T breast
# Experimental Protocol: NCI tumour cell line growth inhibition, 48 h
Measurement Kind: TGI

[
  {
    "Molecule": "CC(=O)c1c(O)c(C)c(O)c(Cc2c(O)c3c(c(C(=O)/C=C/c4ccccc4)c2O)OC(C)(C)C=C3)c1O",
    "Test Target": "HS 578T breast",
    "Experimental Result": "> 100 µM"
  },
  {
    "Molecule": "C/C(=N/O)c1cccc(Nc2cc(-n3nnc4ccccc43)nc3ccccc23)c1",
    "Test Target": "HS 578T breast",
    "Experimental Result": "45.5 µM"
  },
  {
    "Molecule": "C[C@@H](NC(C#N)c1ccco1)c1ccccc1 (stereo partly drawn)",
    "Test Target": "HS 578T breast",
    "Experimental Result": "> 100 µM"
  },
  {
    "Molecule": "CCOc1ccccc1CCN=C1NC(=O)/C(=C/c2ccc3ncccc3c2)S1",
    "Test Target": "HS 578T breast",
    "Experimental Result": "> 7.14 µM"
  },
  {
    "Molecule": "COc1cc(C2c3c(ccc4ccccc34)C(=O)C3CCC(=O)N32)cc(OC)c1OC (stereo not drawn)",
    "Test Target": "HS 578T breast",
    "Experimental Result": "> 50 µM"
  },
  {
    "Molecule": "O=C(Nc1cccc(Cl)c1)Nn1cnnc1",
    "Test Target": "HS 578T breast",
    "Experimental Result": "> 100 µM"
  },
  {
    "Molecule": "COC1CC(N)(c2ccccc2)C(O)C(C)O1 (stereo not drawn)",
    "Test Target": "HS 578T breast",
    "Experimental Result": "> 100 µM"
  },
  {
    "Molecule": "COc1ccc(C2=Nn3c(nnc3-c3cc(Cl)cc(Cl)c3Cl)SC2)cc1",
    "Test Target": "HS 578T breast",
    "Experimental Result": "13.6 µM"
  },
  {
    "Molecule": "CC(C)/C(Cl)=N/OC(=O)Nc1ccc(Br)cc1",
    "Test Target": "HS 578T breast",
    "Experimental Result": "58.4 µM"
  },
  {
    "Molecule": "c1ccc(-c2nc(-c3ccccn3)nc(-c3ccccn3)n2)nc1",
    "Test Target": "HS 578T breast",
    "Experimental Result": "> 100 µM"
  },
  {
    "Molecule": "COc1ccc2c(c1)C(=O)/C(=C/c1cccc(OCC(=O)c3ccccc3)c1)CC2",
    "Test Target": "HS 578T breast",
    "Experimental Result": "> 100 µM"
  },
  {
    "Molecule": "CC(=O)Nc1ccc(-c2cc(C(=O)O)c3cc4ccccc4cc3n2)cc1",
    "Test Target": "HS 578T breast",
    "Experimental Result": "> 100 µM"
  },
  {
    "Molecule": "O=C(Oc1cccnc1)c1cccnc1Nc1ccnc(C(F)(F)F)c1",
    "Test Target": "HS 578T breast",
    "Experimental Result": "> 100 µM"
  },
  {
    "Molecule": "O=[N+]([O-])c1ccccc1OCCOc1ccccc1[N+](=O)[O-]",
    "Test Target": "HS 578T breast",
    "Experimental Result": "> 100 µM"
  },
  {
    "Molecule": "O=C1c2cccc([N+](=O)[O-])c2C(=O)N1Cc1ccccc1",
    "Test Target": "HS 578T breast",
    "Experimental Result": "> 100 µM"
  },
  {
    "Molecule": "NC(=O)Nc1c(Cl)cc(S(N)(=O)=O)cc1Cl",
    "Test Target": "HS 578T breast",
    "Experimental Result": "> 100 µM"
  },
  {
    "Molecule": "S=C1c2ccc(Cl)cc2-n2cnnc2C2CSCN12 (stereo not drawn)",
    "Test Target": "HS 578T breast",
    "Experimental Result": "> 100 µM"
  },
  {
    "Molecule": "COC(=O)C1=C(O)C(C(=O)OC)C2CC(=O)CC1C2(C)C (stereo not drawn)",
    "Test Target": "HS 578T breast",
    "Experimental Result": "> 100 µM"
  },
  {
    "Molecule": "N#C[Se]Cc1cc(-c2ccccc2)n(-c2ccc(S(N)(=O)=O)cc2)n1",
    "Test Target": "HS 578T breast",
    "Experimental Result": "5.21 µM"
  },
  {
    "Molecule": "CCc1n[nH]c(=O)n1CCCCCCCCCCCCn1c(CC)n[nH]c1=O",
    "Test Target": "HS 578T breast",
    "Experimental Result": "> 100 µM"
  },
  {
    "Molecule": "c1ccc(NN(Cc2cnccn2)c2ccccc2)cc1",
    "Test Target": "HS 578T breast",
    "Experimental Result": "> 100 µM"
  },
  {
    "Molecule": "Nc1ncn([C@@H]2S[C@H](CO)[C@@H](O)[C@@H]2F)c(=O)n1",
    "Test Target": "HS 578T breast",
    "Experimental Result": "> 100 µM"
  },
  {
    "Molecule": "O=C(O)c1nc(NCc2nc3cc(Cl)ccc3o2)n[nH]1",
    "Test Target": "HS 578T breast",
    "Experimental Result": "> 100 µM"
  }
]
